Listed here: items and their measured Viability L929.
Test system: mouse L929 fibroblast
Assay protocol: Cell viability assay (MTT), L929
Type: cell-based
Condition parameters: 3.9 µg/ml, 24 h
Could you give me the number in %? Just the number is fine.

Task: Query: Viability L929; subject: "C/C(=N\Nc1nc(-c2ccc(NS(C)(=O)=O)cc2)cs1)c1ccc(Nc2nc(N)nc(N)n2)cc1"
Result: 104.20

Task: Query: Viability L929; subject: "C/C(=N\Nc1nc(-c2ccc3[nH]c(=O)oc3c2)cs1)c1ccc(Nc2nc(N)nc(N)n2)cc1"
Result: 103.03

Task: Query: Viability L929; subject: "C/C(=N\Nc1nc(-c2cc3ccccc3oc2=O)cs1)c1ccc(Nc2nc(N)nc(N)n2)cc1"
Result: 101.95

Task: Query: Viability L929; subject: "CC(=O)Nc1ccc(-c2csc(N/N=C(\C)c3ccc(Nc4nc(N)nc(N)n4)cc3)n2)cc1"
Result: 100.36

---

Listed here: items and their measured Viability L929.
Tested on: mouse L929 fibroblast
Assay protocol: Cell viability assay (MTT), L929
Assay type: cell-based
Condition parameters: 31.2 µg/ml, 24 h
Could you give me the number in %? Just the number is fine.

Example molecules with recorded Viability L929:
Mol | Units label | Viability L929
C/C(=N\Nc1nc(-c2ccc(NS(C)(=O)=O)cc2)cs1)c1ccc(Nc2nc(N)nc(N)n2)cc1 | % | 104.07
CC(=O)Nc1ccc(-c2csc(N/N=C(\C)c3ccc(Nc4nc(N)nc(N)n4)cc3)n2)cc1 | % | 99.83
C/C(=N\Nc1nc(-c2ccc3[nH]c(=O)oc3c2)cs1)c1ccc(Nc2nc(N)nc(N)n2)cc1 | % | 105.52

Query molecule follows.
Task: Query: Viability L929; subject: "C/C(=N\Nc1nc(-c2cc3ccccc3oc2=O)cs1)c1ccc(Nc2nc(N)nc(N)n2)cc1"
Result: 104.60

---

Assay protocol: Cell viability assay (MTT), VERO
Type: cell-based, Cercopithecus aethiops
Condition parameters: African green monkey (Cercopithecus aethiops), VERO kidney epithelial cells, 62.5 µg/ml
Listed here: items and their measured viability at 24 h, 62.5 µg/ml.
Could you give me the number in %? Just the number is fine.

Example molecules with recorded viability at 24 h, 62.5 µg/ml:
Mol | Units label | viability at 24 h, 62.5 µg/ml
C/C(=N\Nc1nc(-c2ccc(Cl)c(Cl)c2)cs1)c1ccc(Nc2nc(N)nc(N)n2)cc1 | % | 111
C/C(=N\Nc1nc(-c2ccc(Br)cc2)cs1)c1ccc(Nc2nc(N)nc(N)n2)cc1 | % | 100
C/C(=N\Nc1nc(-c2ccc(C)cc2)cs1)c1ccc(Nc2nc(N)nc(N)n2)cc1 | % | 112

Task: Query: viability at 24 h, 62.5 µg/ml; subject: "C/C(=N\Nc1nc(-c2ccc([N+](=O)[O-])cc2)cs1)c1ccc(Nc2nc(N)nc(N)n2)cc1"
Result: 109

Task: Query: viability at 24 h, 62.5 µg/ml; subject: "C/C(=N\Nc1nc(-c2ccc(Cl)cc2)cs1)c1ccc(Nc2nc(N)nc(N)n2)cc1"
Result: 115

---

System: VERO cells
Assay protocol: Cell viability assay (MTT), VERO
Format: cell-based, Cercopithecus aethiops
Condition parameters: concentration for 30% proliferation inhibition, 24 h
Assay readout: CC30 VERO

Mol | CC30 VERO
C/C(=N\Nc1nc(-c2cc3ccccc3oc2=O)cs1)c1ccc(Nc2nc(N)nc(N)n2)cc1 | >125.0 µg/mL

Task: Query: CC30 VERO; subject: "C/C(=N\Nc1nc(-c2ccc(Cl)cc2)cs1)c1ccc(Nc2nc(N)nc(N)n2)cc1"
Result: >125.0 µg/mL

Task: Query: CC30 VERO; subject: "C/C(=N\Nc1nc(-c2ccc3[nH]c(=O)oc3c2)cs1)c1ccc(Nc2nc(N)nc(N)n2)cc1"
Result: >62.5 µg/mL

Task: Query: CC30 VERO; subject: "C/C(=N\Nc1nc(-c2ccc(C)cc2)cs1)c1ccc(Nc2nc(N)nc(N)n2)cc1"
Result: >125.0 µg/mL

Task: Query: CC30 VERO; subject: "C/C(=N\NC(N)=S)c1ccc(Nc2nc(N)nc(N)n2)cc1"
Result: >125.0 µg/mL

Task: Query: CC30 VERO; subject: "CC(=O)Nc1ccc(-c2csc(N/N=C(\C)c3ccc(Nc4nc(N)nc(N)n4)cc3)n2)cc1"
Result: >125.0 µg/mL

Task: Query: CC30 VERO; subject: "C/C(=N\Nc1nc(-c2ccc(F)cc2)cs1)c1ccc(Nc2nc(N)nc(N)n2)cc1"
Result: >125.0 µg/mL

Task: Query: CC30 VERO; subject: "C/C(=N\Nc1nc(-c2ccc(Cl)c(Cl)c2)cs1)c1ccc(Nc2nc(N)nc(N)n2)cc1"
Result: >62.5 µg/mL

---

Assay protocol: Cell viability assay (MTT), VERO
Format: cell-based, Cercopithecus aethiops
Condition parameters: African green monkey (Cercopithecus aethiops), VERO kidney epithelial cells, 0.9 µg/ml
Protocol: […] The effects of tested compounds on the viability of mouse fibroblasts L929 and […] VERO cells were evaluated using the MTT assay. […] Optical density (OD) was read on the ELISA reader (Multiskan EX, Labsystems; http://www.mtxlsi.com/multiskan_EX.htm) at 550 nm. The results were expressed as percentage viability compared with the treated 2.5% DMSO controls. […]
Assay readout: viability at 24 h, 0.9 µg/ml (%)
Could you give me the number in %? Just the number is fine.

Example compounds with recorded viability at 24 h, 0.9 µg/ml:
Mol | viability at 24 h, 0.9 µg/ml (%)
C/C(=N\Nc1nc(-c2ccccc2)cs1)c1ccc(Nc2nc(N)nc(N)n2)cc1 | 91.9
C/C(=N\Nc1nc(-c2ccc(C)cc2)cs1)c1ccc(Nc2nc(N)nc(N)n2)cc1 | 92.4
C/C(=N\Nc1nc(-c2ccc([N+](=O)[O-])cc2)cs1)c1ccc(Nc2nc(N)nc(N)n2)cc1 | 104
C/C(=N\Nc1nc(-c2ccc(Cl)c(Cl)c2)cs1)c1ccc(Nc2nc(N)nc(N)n2)cc1 | 97.5

Task: Query: viability at 24 h, 0.9 µg/ml; subject: "C/C(=N\Nc1nc(-c2ccc(F)cc2)cs1)c1ccc(Nc2nc(N)nc(N)n2)cc1"
Result: 90.5

Task: Query: viability at 24 h, 0.9 µg/ml; subject: "C/C(=N\Nc1nc(-c2ccc(Cl)cc2)cs1)c1ccc(Nc2nc(N)nc(N)n2)cc1"
Result: 93.5

---

Tested on: Toxoplasma gondii BK strain
Assay protocol: T. gondii tachyzoite intracellular proliferation in VERO host cells ([3H]uracil incorporation)
Format: cell-based
Condition parameters: Toxoplasma gondii; 15.6 µg/ml, VERO host cells
Listed here: items and their measured activity at 15.6 µg/mL.
Could you give me the number in %? Just the number is fine.

Example compounds with recorded activity at 15.6 µg/mL:
Mol | Recorded measurement
C/C(=N\Nc1nc(-c2ccccc2)cs1)c1ccc(Nc2nc(N)nc(N)n2)cc1 | 63.6
C/C(=N\Nc1nc(-c2ccc(F)cc2)cs1)c1ccc(Nc2nc(N)nc(N)n2)cc1 | 99.1

Query compound follows.
Task: Request body: readout activity at 15.6 µg/mL, system Toxoplasma gondii BK strain, query "C/C(=N\Nc1nc(-c2ccc(Cl)cc2)cs1)c1ccc(Nc2nc(N)nc(N)n2)cc1" . Return the value.
Result: 74.6

---

Assay protocol: Cell viability assay (MTT), L929
Format: cell-based, Mus musculus
Condition parameters: mouse, L929 fibroblast cells, 15.6 µg/ml
Assay readout: viability at 24 h, 15.6 µg/ml (%)
Could you give me the number in %? Just the number is fine.

Mol | viability at 24 h, 15.6 µg/ml / %
C/C(=N\Nc1nc(-c2ccc(F)cc2)cs1)c1ccc(Nc2nc(N)nc(N)n2)cc1 | 102
C/C(=N\Nc1nc(-c2ccc(I)cc2)cs1)c1ccc(Nc2nc(N)nc(N)n2)cc1 | 98.8

Query molecule follows.
Task: Query: viability at 24 h, 15.6 µg/ml; subject: "C/C(=N\Nc1nc(-c2ccc(Cl)cc2)cs1)c1ccc(Nc2nc(N)nc(N)n2)cc1"
Result: 110

Taken from paper PMC5854716.
